I'd be grateful if you could share measured AUC for these entries.
# Protocol Notes: Pharmacokinetic study in mice
# Format: in vivo
# Measurement Context: female, BALB/c (BALB/cAnN CrlCrlj), mouse, plasma, intravenous, 1 mg/kg
// note: answer is a bare numeric in ng·h/mL

Query string: Using known records, supply AUC for `O=C1N[C@]2(C[C@@H](F)c3cc(-c4cnn(C5CN(C6COC6)C5)c4)ccc32)C(=O)N1CC(=O)N(Cc1ccc(F)cc1)C1(C(F)(F)F)COC1`
Result string: 764

Query string: Answer with the recorded AUC for the compound listed here: `O=C1N[C@]2(C[C@@H](F)c3cc(-c4cnn(C5CN(C6COC6)C5)c4)ccc32)C(=O)N1CC(=O)N(Cc1ccc(F)cn1)C1(C(F)(F)F)CC(F)(F)C1`
Result string: 1200

Query string: Query AUC for `CN1CC(N(Cc2ccc(F)cn2)C(=O)CN2C(=O)N[C@]3(C[C@@H](F)c4cc(-c5cnn(C6COC6)c5)ccc43)C2=O)(C(F)(F)F)C1`
Result string: 313

Query string: Tell us which AUC value is on record for `O=C1N[C@]2(C[C@@H](F)c3cc(-c4cnn(C5CN(C6COC6)C5)c4)ccc32)C(=O)N1CC(=O)N(Cc1ccc(F)cc1)C1(C(F)(F)F)CC(F)(F)C1`
Result string: 2100

Query string: State its AUC for this compound: `CN1CC(N(Cc2ccc(F)cn2)C(=O)CN2C(=O)N[C@]3(C[C@@H](F)c4cc(-c5cnn(C)c5)ccc43)C2=O)(C(F)(F)F)C1`
Result string: 528

Query string: Answer with reported AUC of `CN1CC(N(Cc2ccc(F)cc2)C(=O)CN2C(=O)N[C@]3(C[C@@H](F)c4cc(-c5cnn(C)c5)ccc43)C2=O)(C(F)(F)F)C1`
Result string: 491

* * *

# Protocol Notes: Membrane permeability test (PAMPA)
# Format: in vitro ADME
# Measurement Context: pH 7.4, 37° C., read-out: pH 7.4 Pe
Reported Property: Papp at 4 h (×10⁻⁶ cm/s)
I only need the number, in ×10⁻⁶ cm/s, no unit after it.

Query string: Determine its reported Papp at 4 h: `CN1CC(N(Cc2ccc(F)cc2)C(=O)CN2C(=O)N[C@]3(C[C@@H](F)c4cc(-c5cn(C)nc5F)ccc43)C2=O)(C(F)(F)F)C1`
Result string: 32.2

Query string: Give me measured Papp at 4 h, please, for this molecule: `CCn1cc(-c2ccc3c(c2)[C@H](F)C[C@]32NC(=O)N(CC(=O)N(Cc3ccc(F)cn3)C3(C(F)(F)F)CN(C)C3)C2=O)cn1`
Result string: 26.6

Query string: Fill in reported Papp at 4 h for this entry: `CN1CC(N(Cc2ccc(F)cc2)C(=O)CN2C(=O)N[C@]3(CCc4cc(-c5cnn(C)c5)ccc43)C2=O)(C(F)(F)F)C1`
Result string: 28.9

Query string: Quick one: give measured Papp at 4 h for `CN1CC(N(Cc2ccc(F)cc2)C(=O)CN2C(=O)N[C@]3(C[C@@H](F)c4cc(-c5cnn(C6CCOCC6)c5)ccc43)C2=O)(C(F)(F)F)C1`
Result string: 28.9

Query string: Please report Papp at 4 h for the following molecule: `CN1CC(N(Cc2ccc(F)cn2)C(=O)CN2C(=O)N[C@]3(C[C@@H](F)c4cc(-c5cnn(CC6COC6)c5)ccc43)C2=O)(C(F)(F)F)C1`
Result string: 6.1

Query string: Respond only with Papp at 4 h recorded for `CN1CC(N(Cc2ccc(F)cn2)C(=O)CN2C(=O)N[C@]3(C[C@@H](F)c4cc(-c5cnn(C)c5)ccc43)C2=O)(C(F)(F)F)C1`
Result string: 21.9
